So I've got a bunch of compounds here, and I need their fractional viability values.
Test system: TYKNU
Experiment: fractional viability relative to vehicle; TYKNU is a high-grade serous ovarian cancer line; higher = less growth inhibition
Conditions: 2uM; 72 h; genotype: OPA1 knockout (sgOPA1 #2)
Counter-ions that a name gives are not always drawn. In all, about 2,000 compounds were measured (“fractional viability relative to vehicle”: median about 0.92, lowest 2% from about 0.11 on). The sample as a whole holds a higher share of the lowest values than the screen did.
Reply briefly: the number, and no unit.

Request: Quick check: fractional viability of CN1c2ccccc2C(NCCCCCCC(=O)O)c2ccc(Cl)cc2S1(=O)=O (stereo not given) [Tianeptine sodium] ?
Response: 1.15

Request: What does the data say about its fractional viability? Entry: C=CCN1CC[C@]23c4c5ccc(O)c4O[C@H]2C(=O)CC[C@@]3(O)[C@H]1C5 [Naloxone HCl]
Response: 0.816

Request: Dear colleague, I am looking for the recorded fractional viability of the following compound: c1cc2c(cc1[C@H]1OC[C@H]3[C@@H]1CO[C@@H]3c1ccc3c(c1)OCO3)OCO2
Response: 1.06

Request: Reported fractional viability, compound CN[C@@H]1C[C@H]2O[C@@](C)([C@@H]1OC)n1c3ccccc3c3c4c(c5c6ccccc6n2c5c31)C(=O)NC4 : ____
Response: 0.264

Request: Would you mind telling me what fractional viability value was observed for COc1ccc(C(CN(C)C)C2(O)CCCCC2)cc1 (stereo not given) ?
Response: 1.21
